# Assay system: human recombinant FGFR4 catalytic domain protein (amino acid 460-802) (Homo sapiens (Human))
# Sequence (P22455 460-802): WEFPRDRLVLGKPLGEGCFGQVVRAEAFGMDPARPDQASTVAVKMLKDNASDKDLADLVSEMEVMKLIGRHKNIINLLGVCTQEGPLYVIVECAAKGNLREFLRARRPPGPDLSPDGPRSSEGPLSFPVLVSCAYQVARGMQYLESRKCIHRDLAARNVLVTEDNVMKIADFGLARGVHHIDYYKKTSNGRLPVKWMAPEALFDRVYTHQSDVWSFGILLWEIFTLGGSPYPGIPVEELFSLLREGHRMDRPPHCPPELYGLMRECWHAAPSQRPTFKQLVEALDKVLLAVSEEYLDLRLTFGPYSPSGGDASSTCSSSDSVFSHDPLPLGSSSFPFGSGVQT
# Experiment notes: FGFR4 activity inhibition test (HTRF kinase assay)
# Measurement setup: 90 μM ATP
pIC50: −log10 of the molar value.
Below, each entry is listed with its recorded pIC50.

The cases that follow already have their pIC50 on record.
C=CC(=O)N1CC[C@H](n2nc(C#Cc3cc(OC)cc(OC)c3)c(C(N)=O)c2N)C1 = > 8.00
C=CC(=O)N1CC[C@H](n2nc(C#Cc3cc(Cl)ccc3F)c(C(N)=O)c2N)C1 = 7.00 to 8.00
C=CC(=O)N1CC[C@H](n2nc(C#Cc3cc(OC)cc(OC)c3)c(C(N)=O)c2NCCOC)C1 = 7.00 to 8.00

May I ask what pIC50 has been recorded for C=CC(=O)N1CC[C@H](n2nc(C#Cc3cc(OC)cc(C(=O)NC)c3)c(C(N)=O)c2N)C1 ? > 8.00
